# reported pIC50; entries follow
biological target: Matrix metalloproteinase-9 (Homo sapiens, UniProt P14780); assay: Inhibition of human gelatinase B, MMP9
Sequence (P14780 whole entry): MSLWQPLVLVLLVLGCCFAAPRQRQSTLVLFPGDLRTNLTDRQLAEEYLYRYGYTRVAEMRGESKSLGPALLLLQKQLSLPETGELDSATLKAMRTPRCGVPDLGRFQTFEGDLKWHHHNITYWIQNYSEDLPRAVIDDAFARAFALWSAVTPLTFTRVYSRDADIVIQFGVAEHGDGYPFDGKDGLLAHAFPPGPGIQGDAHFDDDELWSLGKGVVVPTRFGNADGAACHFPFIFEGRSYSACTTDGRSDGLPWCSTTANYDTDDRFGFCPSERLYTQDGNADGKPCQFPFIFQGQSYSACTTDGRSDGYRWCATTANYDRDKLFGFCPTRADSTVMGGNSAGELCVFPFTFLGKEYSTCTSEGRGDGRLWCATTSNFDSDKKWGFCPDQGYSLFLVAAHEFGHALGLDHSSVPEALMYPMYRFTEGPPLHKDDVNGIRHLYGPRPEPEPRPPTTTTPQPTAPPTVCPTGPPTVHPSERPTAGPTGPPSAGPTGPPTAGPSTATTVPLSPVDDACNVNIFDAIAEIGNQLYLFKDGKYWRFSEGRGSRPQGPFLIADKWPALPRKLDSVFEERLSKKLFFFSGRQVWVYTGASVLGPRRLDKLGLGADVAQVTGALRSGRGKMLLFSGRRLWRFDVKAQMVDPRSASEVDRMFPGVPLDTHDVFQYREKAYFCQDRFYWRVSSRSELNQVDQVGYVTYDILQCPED
pIC50: −log10 of the molar value.
endpoint label: pIC50

[
  {
    "compound": "CNC(=O)[C@H](NC(=O)[C@H](CC(C)C)[C@@H](CN1C(=O)c2ccccc2C1=O)C(=O)NO)C(C)(C)C",
    "system": "Matrix metalloproteinase-9 (Homo sapiens, UniProt P14780)",
    "measured number": 8.37
  },
  {
    "compound": "CNC(=O)[C@H](NC(=O)C(CC(C)C)C(CN1C(=O)N(C)C(C)(C)C1=O)C(=O)NO)C(C)(C)C (single isomer, unassigned)",
    "system": "Matrix metalloproteinase-9 (Homo sapiens, UniProt P14780)",
    "measured number": 8.55
  },
  {
    "compound": "CC(C)C[C@@H](C(=O)N1CCCCC1)[C@@H](CN1C(=O)N(C)C(C)(C)C1=O)C(=O)NO",
    "system": "Matrix metalloproteinase-9 (Homo sapiens, UniProt P14780)",
    "measured number": 6.63
  },
  {
    "compound": "CN1C(=O)N(C[C@@H](C(=O)NO)[C@@H](CC2CCCC2)C(=O)N2CCCCC2)C(=O)C1(C)C",
    "system": "Matrix metalloproteinase-9 (Homo sapiens, UniProt P14780)",
    "measured number": 7.23
  }
]

* * *

experiment: Oral bioavailability in rat; format: ADME, organism-based; details: in vivo
# reported bioavailability; entries follow

[
  {
    "compound": "CNC(=O)[C@H](NC(=O)[C@@H](CC(=O)NO)CC(C)C)C(C)(C)C",
    "bioavailability (%)": 3
  },
  {
    "compound": "CNC(=O)[C@H](NC(=O)C(CC(C)C)C(CN1C(=O)N(C)C(C)(C)C1=O)C(=O)NO)C(C)(C)C (single isomer, unassigned)",
    "bioavailability (%)": 1.5
  },
  {
    "compound": "CN1C(=O)N(C[C@@H](C(=O)NO)[C@@H](CC2CCCC2)C(=O)N2CCCCC2)C(=O)C1(C)C",
    "bioavailability (%)": 25
  },
  {
    "compound": "CC(C)C[C@@H](C(=O)N1CCCCC1)[C@@H](CN1C(=O)N(C)C(C)(C)C1=O)C(=O)NO",
    "bioavailability (%)": 30
  },
  {
    "compound": "CNC(=O)[C@H](NC(=O)[C@H](CC(C)C)[C@@H](CN1C(=O)c2ccccc2C1=O)C(=O)NO)C(C)(C)C",
    "bioavailability (%)": 1
  },
  {
    "compound": "CNC(=O)[C@H](NC(=O)[C@H](CC(C)C)[C@@H](C)C(=O)NO)C(C)(C)C",
    "bioavailability (%)": 2.7
  }
]

* * *

assay: Solubility was determined; assay type: physicochemical

[
  {
    "line notation": "CN1C(=O)N(C[C@@H](C(=O)NO)[C@@H](CC2CCCC2)C(=O)N2CCCCC2)C(=O)C1(C)C",
    "unit tag": "mg/mL",
    "limit qualifier": "=",
    "solubility": 73
  },
  {
    "line notation": "CC(C)C[C@@H](C(=O)N1CCCCC1)[C@@H](CN1C(=O)N(C)C(C)(C)C1=O)C(=O)NO",
    "unit tag": "mg/mL",
    "limit qualifier": ">",
    "solubility": 100
  },
  {
    "line notation": "CNC(=O)[C@H](NC(=O)[C@@H](CC(=O)NO)CC(C)C)C(C)(C)C",
    "unit tag": "mg/mL",
    "limit qualifier": "=",
    "solubility": 0.8
  }
]

* * *

Assay system Stromelysin-1 (Homo sapiens, UniProt P08254); read-out recorded as IC50.
endpoint label: IC50 (nM)

[
  {
    "line notation": "CC(C)C[C@@H](C(=O)N1CCCCC1)[C@@H](CN1C(=O)N(C)C(C)(C)C1=O)C(=O)NO",
    "system": "Stromelysin-1 (Homo sapiens, UniProt P08254)",
    "endpoint label": "IC50",
    "measured number": 2180
  },
  {
    "line notation": "CNC(=O)[C@H](NC(=O)[C@@H](CC(=O)NO)CC(C)C)C(C)(C)C",
    "system": "Stromelysin-1 (Homo sapiens, UniProt P08254)",
    "endpoint label": "IC50",
    "measured number": 160
  },
  {
    "line notation": "CNC(=O)[C@H](NC(=O)[C@H](CC(C)C)[C@@H](CN1C(=O)c2ccccc2C1=O)C(=O)NO)C(C)(C)C",
    "system": "Stromelysin-1 (Homo sapiens, UniProt P08254)",
    "endpoint label": "IC50",
    "measured number": 9.1
  },
  {
    "line notation": "CNC(=O)[C@H](NC(=O)[C@H](CC(C)C)[C@@H](C)C(=O)NO)C(C)(C)C",
    "system": "Stromelysin-1 (Homo sapiens, UniProt P08254)",
    "endpoint label": "IC50",
    "measured number": 47
  }
]

* * *

target: Collagenase; test: Inhibition of human collagenase (MMP1); format: protein assay
# reported IC50; entries follow
endpoint label: IC50

[
  {
    "compound": "CNC(=O)[C@H](NC(=O)C(CC(C)C)C(CN1C(=O)N(C)C(C)(C)C1=O)C(=O)NO)C(C)(C)C (single isomer, unassigned)",
    "endpoint label": "IC50",
    "result": "1 nM"
  },
  {
    "compound": "CC(C)C[C@@H](C(=O)N1CCCCC1)[C@@H](CN1C(=O)N(C)C(C)(C)C1=O)C(=O)NO",
    "endpoint label": "IC50",
    "result": "10.1 nM"
  },
  {
    "compound": "CNC(=O)[C@H](NC(=O)[C@H](CC(C)C)[C@@H](C)C(=O)NO)C(C)(C)C",
    "endpoint label": "IC50",
    "result": "2.6 nM"
  },
  {
    "compound": "CNC(=O)[C@H](NC(=O)[C@@H](CC(=O)NO)CC(C)C)C(C)(C)C",
    "endpoint label": "IC50",
    "result": "4.9 nM"
  }
]
